- Test system: T1, native human ApoC3 (human, UniProt P02656 21-99, biotinylated in the captured-antigen assays (Tables 6 and 8); sites not stated)
- T1 construct: also called nhuApoC3; native huApoC3
- T1 sequence (P02656 21-99): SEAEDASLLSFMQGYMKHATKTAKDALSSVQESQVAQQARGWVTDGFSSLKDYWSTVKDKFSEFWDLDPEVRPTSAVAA
- Protocol: SPR, IgG captured via anti-human Fc, ApoC3 analyte 200 nM
Experimental endpoint: Kd (nM)
Give just the number in nM; leave the unit off.

Fill in the blank: the reported Kd of 29A06 IgG (antibody, V domains shown) VH: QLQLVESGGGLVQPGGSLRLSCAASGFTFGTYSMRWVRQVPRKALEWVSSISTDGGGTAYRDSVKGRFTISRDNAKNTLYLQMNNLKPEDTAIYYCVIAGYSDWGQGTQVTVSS VL: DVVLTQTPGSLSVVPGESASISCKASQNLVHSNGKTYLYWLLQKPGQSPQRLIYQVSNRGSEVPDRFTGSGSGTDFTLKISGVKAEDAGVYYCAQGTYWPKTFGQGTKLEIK is ____.
0.91
